# experimental_system: Nicotinic acetylcholine receptor alpha9/alpha10 (Rattus norvegicus, UniProt P43144+Q9JLB5)
# Sequence (P43144 whole entry): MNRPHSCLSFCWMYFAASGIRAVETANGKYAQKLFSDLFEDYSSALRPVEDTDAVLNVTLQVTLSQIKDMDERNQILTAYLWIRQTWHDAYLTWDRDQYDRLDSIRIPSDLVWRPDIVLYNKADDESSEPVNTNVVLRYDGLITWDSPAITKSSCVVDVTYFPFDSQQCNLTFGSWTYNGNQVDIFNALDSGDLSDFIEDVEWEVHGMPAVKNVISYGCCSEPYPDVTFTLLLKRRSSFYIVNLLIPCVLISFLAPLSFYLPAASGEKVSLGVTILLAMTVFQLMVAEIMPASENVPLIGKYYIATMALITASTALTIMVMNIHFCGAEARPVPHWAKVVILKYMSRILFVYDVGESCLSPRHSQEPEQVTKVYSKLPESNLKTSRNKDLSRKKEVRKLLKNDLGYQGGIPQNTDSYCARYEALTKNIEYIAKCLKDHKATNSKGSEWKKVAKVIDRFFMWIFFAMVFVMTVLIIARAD
# Sequence (Q9JLB5 whole entry): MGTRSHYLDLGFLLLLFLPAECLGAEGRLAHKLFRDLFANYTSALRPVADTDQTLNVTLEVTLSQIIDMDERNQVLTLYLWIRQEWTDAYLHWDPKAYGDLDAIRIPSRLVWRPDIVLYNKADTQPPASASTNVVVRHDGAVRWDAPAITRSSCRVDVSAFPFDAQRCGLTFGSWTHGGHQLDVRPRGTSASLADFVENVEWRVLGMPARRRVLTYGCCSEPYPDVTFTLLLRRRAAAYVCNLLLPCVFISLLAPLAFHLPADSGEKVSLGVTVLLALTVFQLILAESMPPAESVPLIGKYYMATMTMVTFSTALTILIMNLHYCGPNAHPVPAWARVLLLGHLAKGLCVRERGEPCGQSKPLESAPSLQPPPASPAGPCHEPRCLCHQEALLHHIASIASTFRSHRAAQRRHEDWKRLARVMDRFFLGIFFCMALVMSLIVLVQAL
# experiment_description: Antagonist activity at rat alpha9alpha10 nACh receptor expressed in Xenopus oocyte assessed as inhibition of acetylcholine-induced response at -70 mV holding potential by voltage-clamp based electrophysiological assay
Where a SMILES comes first, the peptide text is derived from it.
property_label: IC50 (nM)
One number for each entry, in nM.

Query string: Lookup: IC50 / Nicotinic acetylcholine receptor alpha9/alpha10 (Rattus norvegicus, UniProt P43144+Q9JLB5) / CC(C)C[C@H](NC(=O)[C@H](CCC(=O)O)NC(=O)[C@@H]1CCCN1C(=O)[C@H](Cc1cnc[nH]1)NC(=O)[C@H](CC(N)=O)NC(=O)[C@@H](NC(=O)[C@H](CO)NC(=O)[C@H](CS)NC(=O)[C@H](C)NC(=O)[C@@H]1CCCN1C(=O)[C@H](Cc1cnc[nH]1)NC(=O)[C@H](CO)NC(=O)[C@H](CS)NC(=O)[C@H](CS)NC(=O)CN)C(C)C)C(=O)N[C@@H](CS)C(N)=O (H-GCCSHPACSVNHPELC-NH2)
Result string: 6.9

Reference source: ChEMBL document CHEMBL5346973
